These entries and their values trace back to patent US9120812B2.

The compounds listed here are annotated with their PI3Ka IC50.
Experimental system: PI3Kα (p110α/p85α) (Homo sapiens (Human), UniProt P42336)
Sequence (P42336 whole entry): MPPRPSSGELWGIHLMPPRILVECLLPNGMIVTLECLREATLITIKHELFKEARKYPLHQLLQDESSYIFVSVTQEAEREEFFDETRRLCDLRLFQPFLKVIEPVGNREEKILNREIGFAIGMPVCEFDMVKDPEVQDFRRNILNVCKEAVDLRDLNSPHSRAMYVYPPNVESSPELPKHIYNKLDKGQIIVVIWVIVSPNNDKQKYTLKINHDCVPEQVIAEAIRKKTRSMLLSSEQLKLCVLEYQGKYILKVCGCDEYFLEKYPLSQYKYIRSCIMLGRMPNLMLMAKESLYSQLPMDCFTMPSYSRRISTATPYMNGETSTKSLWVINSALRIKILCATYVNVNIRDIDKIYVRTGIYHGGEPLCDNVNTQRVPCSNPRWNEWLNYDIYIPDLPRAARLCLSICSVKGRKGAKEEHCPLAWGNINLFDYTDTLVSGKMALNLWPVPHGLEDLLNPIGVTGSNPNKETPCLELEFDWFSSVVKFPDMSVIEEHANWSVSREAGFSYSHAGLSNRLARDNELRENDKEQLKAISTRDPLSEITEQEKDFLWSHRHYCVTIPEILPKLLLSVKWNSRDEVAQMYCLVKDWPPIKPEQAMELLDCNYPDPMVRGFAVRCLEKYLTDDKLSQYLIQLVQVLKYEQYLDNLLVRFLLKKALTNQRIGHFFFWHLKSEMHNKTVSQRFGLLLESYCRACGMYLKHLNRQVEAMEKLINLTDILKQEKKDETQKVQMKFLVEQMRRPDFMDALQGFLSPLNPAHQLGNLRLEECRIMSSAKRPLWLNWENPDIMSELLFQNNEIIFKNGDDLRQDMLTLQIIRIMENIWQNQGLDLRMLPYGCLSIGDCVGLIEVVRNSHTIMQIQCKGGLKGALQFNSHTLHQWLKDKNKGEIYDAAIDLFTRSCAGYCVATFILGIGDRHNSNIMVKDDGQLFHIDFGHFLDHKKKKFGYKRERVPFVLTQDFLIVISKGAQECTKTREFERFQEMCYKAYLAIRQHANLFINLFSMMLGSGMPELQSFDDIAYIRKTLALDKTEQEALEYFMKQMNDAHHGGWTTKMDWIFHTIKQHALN
Sequence (P27986 whole entry partner): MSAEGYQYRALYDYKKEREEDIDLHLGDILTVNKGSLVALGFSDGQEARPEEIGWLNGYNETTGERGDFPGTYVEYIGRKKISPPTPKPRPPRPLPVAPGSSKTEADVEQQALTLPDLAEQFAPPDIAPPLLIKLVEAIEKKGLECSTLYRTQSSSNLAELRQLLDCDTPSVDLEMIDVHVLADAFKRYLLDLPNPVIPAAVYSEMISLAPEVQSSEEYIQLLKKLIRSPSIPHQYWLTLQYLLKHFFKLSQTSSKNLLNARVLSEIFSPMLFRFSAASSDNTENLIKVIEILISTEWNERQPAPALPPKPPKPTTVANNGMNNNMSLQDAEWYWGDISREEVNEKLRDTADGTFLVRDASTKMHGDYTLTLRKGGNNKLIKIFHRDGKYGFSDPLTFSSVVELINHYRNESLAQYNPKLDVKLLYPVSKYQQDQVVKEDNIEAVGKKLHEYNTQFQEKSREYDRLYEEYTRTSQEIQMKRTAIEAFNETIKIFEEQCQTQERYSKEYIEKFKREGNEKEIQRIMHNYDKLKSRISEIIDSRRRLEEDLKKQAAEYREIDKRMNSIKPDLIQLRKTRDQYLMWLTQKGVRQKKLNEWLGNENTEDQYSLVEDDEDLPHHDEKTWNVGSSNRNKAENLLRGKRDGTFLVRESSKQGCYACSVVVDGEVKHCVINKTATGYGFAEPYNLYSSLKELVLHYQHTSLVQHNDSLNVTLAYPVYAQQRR
Test summary: PI3Kα enzymatic test by measuring the consumption of ATP
Assay type: biochemical
Readout name: PI3Ka IC50 (µM)

{"columns": ["Compound", "Unit annotation", "Limit sign", "Recorded value"],
 "data": [
  ["CCN1CC(C)(C)Oc2nc(N3CCOC[C@@H]3C)nc(-c3ccc(NC(=O)Nc4cccc(OC(F)F)c4)c(F)c3)c2C1=O [Example 212]", "µM", "=", 1.54],
  ["CCN1CC(C)(C)Oc2nc(N3CC4CCC(C3)O4)nc(-c3ccc(NC(=O)Nc4cc(OC)ccn4)cc3)c2C1=O [Example 35]", "µM", ">", 10],
  ["CCN1CC(C)(C)Oc2nc(N3CC4CCC(C3)O4)nc(-c3ccc(NC(=O)Nc4cncc(OC)n4)c(F)c3)c2C1=O [Example 139]", "µM", ">", 10],
  ["CCN1CC(C)(C)Oc2nc(N3CC4CCC(C3)O4)nc(-c3ccc(NC(=O)Nc4ccc(C)nc4)c(F)c3)c2C1=O [Example 185]", "µM", "=", 5.68],
  ["CCN1CC(C)(C)Oc2nc(N3CCOC[C@@H]3C)nc(-c3ccc(NC(=O)Nc4cc(OC)c(F)cc4F)cc3)c2C1=O [Example 208]", "µM", "=", 1.24],
  ["CCN1CC(C)(C)Oc2nc(N3CC4CCC(C3)O4)nc(-c3ccc(NC(=O)Nc4ccc(N5CCN(C)CC5)cc4)cc3)c2C1=O [Example 205]", "µM", "=", 3.74],
  ["CCN1CC(C)(C)Oc2nc(N3CC4CCC(C3)O4)nc(-c3ccc(NC(=O)Nc4ccc(OC)cn4)cc3)c2C1=O [Example 44]", "µM", ">", 10]
]}
